Consider the following molecules; for each one, report its TGI.
- System: TK-10 renal
- testMethodNotes: NCI tumour cell line growth inhibition, 48 h

Take a look at these entries with their results.
[[record]]
molecule = "CCCN1C(=O)/C(=C/c2ccc(O)cc2)SC1=Nc1ccccc1"
valueobserved = "38.5 µM"

[[record]]
molecule = "COC(=O)C1=C(C(=O)OC)C(C(=O)c2ccccc2)N2N=C(c3ccc(Cl)cc3)C=CC12 (centres undefined)"
valueobserved = "> 100 µM"

[[record]]
molecule = "CCN(CC)/C(=C\\Cl)Nc1ccccn1"
valueobserved = "> 100 µM"

[[record]]
molecule = "NC(=O)CC1(O)C=CC(=O)C=C1"
valueobserved = "> 100 µM"

[[record]]
molecule = "COC(=O)c1cccc(C)c1C1CN=NC12Cc1c(ccc(C)c1C)C2=O (centres undefined)"
valueobserved = "> 100 µM"


For every record below, what is its TGI?
1. O=C(n1[nH]c(=O)n(-c2ccc([N+](=O)[O-])cc2)c1=O)C(Cl)(Cl)Cl
2. O=C(Nc1ccc(N=Nc2ccccc2)cc1)Sc1ccccc1C(=O)O
3. NC(=S)Nc1nnc(-c2ccc(-c3nnc(NC(N)=S)o3)cc2)o1
4. CC(=O)C1=C(O)C2(O)C(=O)c3c(c(C)c4ccc(C)c(O)c4c3O)CC2C(N)C1=O (centres undefined)
5. CCn1cc(C(=O)O)c(=O)c2cc(F)c(N3CCN(Cn4c(O)c(N=NC(=O)c5ccncc5)c5cc(Cl)ccc54)CC3)cc21
6. O=[N+]([O-])c1ccccc1/C=C/C=C1c2ccccc2-c2ccccc21

Reply:
["> 75 µM", "> 100 µM", "> 100 µM", "8.86 µM", "71.3 µM", "> 100 µM"]

----------
- Tested on: MOLT-4 leukemia
- testMethodNotes: NCI tumour cell line growth inhibition, 48 h
observationType: TGI

[[record]]
molecule = "Cn1c(=S)[nH]c2c(Cl)cc(Cl)cc2c1=O"
targetentity = "MOLT-4 leukemia"
valueobserved = "> 100 µM"

[[record]]
molecule = "CNC(=O)c1ccc(Nc2nc(OC3CCCC3)c3c(-c4ccc5nc(C)oc5c4)c[nH]c3n2)c(OC)c1"
targetentity = "MOLT-4 leukemia"
valueobserved = "> 100 µM"

[[record]]
molecule = "COc1cc(-c2ccc(-[n+]3nc(-c4ccc([N+](=O)[O-])cc4)nn3-c3ccc([N+](=O)[O-])cc3)c(OC)c2)ccc1-[n+]1nc(-c2ccc([N+](=O)[O-])cc2)nn1-c1ccc([N+](=O)[O-])cc1"
targetentity = "MOLT-4 leukemia"
valueobserved = "> 82 µM"

[[record]]
molecule = "COc1ccc2cc(CNCCCN3CCN(CCCNCc4ccc5cc(OC)ccc5c4)CC3)ccc2c1"
targetentity = "MOLT-4 leukemia"
valueobserved = "5.72 µM"

[[record]]
molecule = "O[C@H]1[C@H]2[C@H](O)CCCN2C[C@H]1O"
targetentity = "MOLT-4 leukemia"
valueobserved = "> 100 µM"

[[record]]
molecule = "COc1cc(/C=C2\\CCC(C)c3c2nc(N)c(C#N)c3-c2cc(OC)c(OC)c(OC)c2)cc(OC)c1OC (centres undefined)"
targetentity = "MOLT-4 leukemia"
valueobserved = "> 100 µM"

[[record]]
molecule = "Cc1cc(Nc2ncc(Cl)c(Nc3ccccc3S(=O)(=O)C(C)C)n2)c(OC(C)C)cc1C1CCNCC1"
targetentity = "MOLT-4 leukemia"
valueobserved = "3.7 µM"

[[record]]
molecule = "Cc1nc(Nc2ccccc2)sc1C(=O)NNC(N)=O"
targetentity = "MOLT-4 leukemia"
valueobserved = "> 100 µM"

[[record]]
molecule = "Cc1ccc(NC(=O)/C(=N/NC(=O)CC#N)C2C(=O)N(c3ccccc3)N=C2N)cc1C (centres undefined)"
targetentity = "MOLT-4 leukemia"
valueobserved = "> 100 µM"

[[record]]
molecule = "COc1cc(/C=C2\\C[C@H]3[C@@H]4CC=C5C[C@@H](OC(C)=O)CC[C@]5(C)[C@H]4CC[C@]3(C)[C@H]2OC(C)=O)ccc1OCCCn1ccnc1"
targetentity = "MOLT-4 leukemia"
valueobserved = "> 50 µM"


For every record below, what is its TGI?
1. NC(=Nc1ccc(Cl)c(Cl)c1)c1ccccc1N
2. C[N+]1(C)C2CCC1CC(OC(=O)C(CO)c1ccccc1)C2 (centres undefined)
3. Cc1c(N(C(=O)c2cc(-c3cc(Cl)ccc3C(=O)N3Cc4ccccc4C[C@H]3CN3CCOCC3)n(C)c2C)c2ccc(O)cc2)cc(C#N)n1C
4. N#CCc1[nH]nc2nc(SCc3ccccc3)nc(N3CCCCC3)c12
5. c1ccc2c(OCC3CO3)ccc(OCC3CO3)c2c1 (centres undefined)
6. COC(=O)CC1CN(C(=O)OCc2ccccc2)C(C)(C)O1 (centres undefined)
7. C=C1C(=O)O[C@H]2[C@H]1CC/C(COC(=O)N[C@@H](Cc1c[nH]c3ccccc13)C(=O)OC)=C\CC[C@@]1(C)O[C@@H]21

Reply:
1. 69.3 µM
2. > 100 µM
3. > 100 µM
4. 37.9 µM
5. 2.99 µM
6. > 100 µM
7. 5.05 µM

For every record below, what is its TGI?
1. Cc1cccc(NC(=O)CSc2nnc(Cc3ccccc3)o2)c1
2. Cc1cc(Nc2nc(N3CCOCC3)nc3ccccc23)n[nH]1

Reply:
> 100 µM
77.9 µM

----------
- Test system: NCI-H226 lung
- testMethodNotes: NCI tumour cell line growth inhibition, 48 h; in the data active = GI50 below about 0.43 µM; inactive = the rest
Mark one answer only. Choices: active, inactive

Past entries and their recorded results:
[[record]]
compound = "O=C(CSc1nc2sc3c(c2c(=O)n1-c1ccccc1)CCCCC3)N/N=C/c1ccc(F)cc1"
targetentity = "NCI-H226 lung"
labelclass = "inactive"

[[record]]
compound = "C[C@@H](Oc1cc(-c2cnn(C3CC4(CCNCC4)C3)c2)cnc1N)c1c(F)ccc(Cl)c1Cl"
targetentity = "NCI-H226 lung"
labelclass = "inactive"

[[record]]
compound = "CCC[C@H](Nc1nc(-c2ccc(NC(=O)NCC)c(OC)c2)ncc1C)c1cccnc1"
targetentity = "NCI-H226 lung"
labelclass = "active"

[[record]]
compound = "O=C(/C=C/C12c3ccccc3C(c3ccccc31)C1C(=O)NC(=O)C12)c1ccco1 (stereo unspecified)"
targetentity = "NCI-H226 lung"
labelclass = "inactive"


Task item: Assay outcome for CN(C)c1ccc2[nH]c(O)c(C=Nc3ccc(S(N)(=O)=O)cc3)c2c1 : what was it?
Reply: inactive

Task item: Next compound up: N#C/C(=C\c1ccc(Br)cc1)n1nnc2cc(F)c(F)cc21
Reply: inactive

Task item: Next compound up: C=C1C(=O)O[C@H]2[C@H]1CC/C(COC(=O)NCCc1c[nH]c3ccccc13)=C\CC[C@@]1(C)O[C@@H]21
Reply: inactive

Task item: Next compound up: CCCCCCCCO/N=C\c1c2c(O)c3c(O)c(C)c4c(c3c1O)C(=O)C(C)(O/C=C\C(OC)C(C)C(OC(C)=O)C(C)C(O)C(C)C(O)C(C)/C=C\C=C(\C)C(=O)N2)O4 (stereo unspecified)
Reply: inactive

Task item: Next compound up: Nc1c(C(=O)Nc2cccc3ccccc23)sc2nc3c(cc12)CCCCC3
Reply: inactive

----------
Consider the following compounds; for each one, report its TGI.
- Test system: HT29 colon
- testMethodNotes: NCI tumour cell line growth inhibition, 48 h

For every record below, what is its TGI?
1. C=CCOCCCC(=O)C(=[N+]=[N-])C(=O)OC
2. C[C@@H](Oc1cc(-c2cnn(C3CC4(CCNCC4)C3)c2)cnc1N)c1c(F)ccc(Cl)c1Cl
3. CN(C)CCNc1c([N+](=O)[O-])cc2c3c(cccc13)C(=O)N(CCN(C)C)C2=O
4. CC1=C(N(C)C)C(=O)c2nc3n(c2C1=O)CCC3OC(N)=O (configuration not stated)
5. C[C@]12CC[C@H]3[C@@H](CC=C4C[C@@H](O)CC[C@@]43C)[C@@H]1C/C(=C\c1cccc(OCCCn3ccnc3)c1)[C@@H]2O
6. O=C1CC(c2ccccc2)NCN1 (configuration not stated)
7. O=C1c2ccccc2-c2ccc(O)cc21

Reply:
["> 100 µM", "2.17 µM", "5.03 µM", "35.6 µM", "18.1 µM", "> 100 µM", "> 100 µM"]

For every record below, what is its TGI?
1. CC1N(O)C(c2ccccc2)C(c2ccccc2)=[N+]1[O-] (configuration not stated)
2. COc1ccccc1NC(=S)Nc1cccc(C)n1
3. COc1ccc2c(c1)CC1NC2Cc2ccccc21 (configuration not stated)
4. O=C1CS(=O)(=O)C(c2cccc(Oc3ccccc3)c2)N1c1cccc(Cl)c1Cl (configuration not stated)
5. O=C(n1[nH]c(=O)n(-c2ccc([N+](=O)[O-])cc2)c1=O)C(Cl)(Cl)Cl
6. Cc1cc(Cl)ccc1NC(=O)/C(CC(=O)CC(c1ccccc1)c1c(O)c2ccccc2oc1=O)=N\O (configuration not stated)

Reply:
1. > 100 µM
2. > 100 µM
3. > 100 µM
4. 71.2 µM
5. > 75 µM
6. > 100 µM

For every record below, what is its TGI?
1. CC[N+](CC)(CC)Cc1cn(S(=O)(=O)c2ccccc2)c2ccccc12
2. C=C1C(C2(C)C=CC(=O)OC3(C)COC(=O)CC32)C(OC=O)C(OC(=O)C(O)C(C)CC)C2(C)C(c3ccoc3)CC(OC(C)=O)C12O (configuration not stated)
3. CN(C)c1cccc(-c2cc(=O)c3cc4c(cc3[nH]2)OCO4)c1
4. CSC1=N/C(=C\c2ccc(Cl)cc2)C(=O)N1CN1CCOCC1
5. Cc1c(Cl)c(=O)oc2cc(OCC(=O)c3ccccc3)ccc12

Reply:
1. > 100 µM
2. > 100 µM
3. > 100 µM
4. 94.4 µM
5. > 100 µM
